experiment description: log P by HPLC on reversed-phase column (C18), EEC Directive 79/831 Annex V.A8
Format: physicochemical
assay conditions: C18, 40° C., 0.1% aqueous formic acid and acetonitrile, gradient 10% to 90% acetonitrile
measured property: logP

Answered cases to consult:
COc1ccnc(CN(C(=O)c2cn(C)nc2C(F)(F)F)C2CC2)c1OC = 1.18
CC(c1ncc(Cl)cc1Cl)N(C(=O)c1cn(C)nc1C(F)F)C1CC1 (centres unmarked) = 3.01
Cn1cc(C(=O)N(Cc2c(Cl)cncc2Cl)C2CC2)c(C(F)F)n1 = 1.88
Cc1cc(C(=O)N(Cc2c(Cl)cncc2Cl)C2CC2)nn1C = 2
Cc1nc(C(=O)N(Cc2c(Cl)cncc2Cl)C2CC2)c(C)o1 = 2.18

(P) COc1ccc(CN(C(=O)c2ocnc2C)C2CC2)cn1
(Q) CC(c1cnc(Cl)c(Cl)c1)N(C(=O)c1cn(C)cc1C(F)(F)F)C1CC1 (centres unmarked)
(R) COc1ccnc(CN(C(=O)c2cn(C)nc2C(F)F)C2CC2)c1OC
Prompt line: Order by logP, ascending. Answer by writing out the labels in the requested order.
Response line: R, P, Q

(P) Cc1nn(C)c(F)c1C(=O)N(Cc1cnc(Cl)cc1Cl)C1CC1
(Q) COc1ccnc(CN(C(=O)c2cn(C)cc2C(F)(F)F)C2CC2)c1OC
Prompt line: Two entries are listed, P and Q . Which one carries the higher logP? Pick one; state its label.
Response line: P

----------
experiment description: log P by HPLC on reversed-phase column (C18), EEC Directive 79/831 Annex V.A8
Type: physicochemical
assay conditions: C18, 40° C., 0.1% aqueous formic acid and acetonitrile, gradient 10% to 90% acetonitrile
measured property: logP

Look over these answered cases.
Cc1nc(C(F)F)c(C(=O)N(C2CC2)C(C)c2ncc(Cl)cc2Cl)s1 (stereo not drawn) = 3.64
CC(c1ncc(Cl)cc1Cl)N(C(=S)c1cn(C)nc1C(F)F)C1CC1 (stereo not drawn) = 4.01
COc1ccnc(CN(C(=O)c2sc(C)nc2C(F)F)C2CC2)c1OC = 1.2
COc1ccc(CN(C(=O)c2nc(C)oc2C)C2CC2)cn1 = 1.89
Cc1cc(C(=O)N(Cc2ccc(Cl)cn2)C2CC2)c(C(F)(F)F)o1 = 3.36

(P) COc1ccnc(CN(C(=O)c2nn(C)nc2C(F)(F)F)C2CC2)c1OC
(Q) Cc1nn(C)c(F)c1C(=S)N(C1CC1)C(C)c1ncc(Cl)cc1Cl (stereo not drawn)
Prompt line: Record comparison, field logP: mark the lower of P and Q . The response must carry the label of the picked entry.
Response line: P

(a) CCOc1nn(C)cc1C(=O)N(Cc1ccc(Cl)cn1)C1CC1
(b) Cc1ccc(CN(C(=O)c2cn(C)nc2C(F)F)C2CC2)cn1
Prompt line: Which entry has a larger number for logP, a or b ? Let me know the label of the one you choose.
Response line: a

----------
experiment description: log P by HPLC on reversed-phase column (C18), EEC Directive 79/831 Annex V.A8
Format: physicochemical
assay conditions: C18, 40° C., 0.1% aqueous formic acid and acetonitrile, gradient 10% to 90% acetonitrile
Procedure: Temperature: 40° C.; Mobile phases: 0.1% aqueous formic acid and acetonitrile; linear gradient from 10% acetonitrile to 90% acetonitrile.
measured property: logP

CCC(c1ccncc1)N(C(=O)c1cn(C)nc1C(F)F)C1CC1 (stereo not drawn) = 1.79
Cc1cc(C(=O)N(C2CC2)C(C)c2cccnc2Cl)nn1C (racemic) = 1.78
CC(c1cnccn1)N(C(=O)c1cn(C)nc1C(F)F)C1CC1 (stereo not drawn) = 1.47
COc1ccc(CN(C(=O)c2occc2C)C2CC2)cn1 = 2.46

(I) Cc1nn(C)c(F)c1C(=O)N(Cc1c(Cl)cncc1Cl)C1CC1
(II) O=C(c1ccsc1I)N(Cc1c(Cl)cncc1Cl)C1CC1
Prompt line: Parameter metric = logP. Return the lower-valued option from I and II . Could you answer with the label of the item you picked?
Response line: I
(I: 2.01, II: 3.21)
